Ref: paper PMC6270258

Listed compounds paired with reported CC50 at 48 h
Test: Cytotoxicity, MTT colorimetric test
Type: cell-based, human
Conditions: human
Write the value in µM as a bare number.

CC(=O)OC1C[C@H]2[C@@H]3CCC4CC(=O)CC[C@]4(C)[C@H]3CC[C@]2(C)[C@H]1[C@H](C)C(=O)CC[C@@H](C)CO (stereo partly drawn) [Compound 22] | 82.4

Exercise: In one line, give reported CC50 at 48 h of the entry C[C@@H]1CC[C@@]2(OC1)O[C@H]1C[C@H]3[C@@H]4CCC56OC5C(=O)CC[C@]6(C)[C@H]4CC[C@]3(C)[C@H]1[C@@H]2C (stereo partly drawn) [Compound 10, (25R)-4,5-Epoxy-spirostan-3-one] .
Solution: 101

---

System: HepG2-A16 human hepatoma cells
Assay: Cytotoxicity, MTT colorimetric test
Type: cell-based
result.type: cytotoxicity (in words)

CC(=O)O[C@H]1CC[C@@]2(C)C(=CCC3C4C[C@H](OC(C)=O)C(C(C)C5=C(C(C)=O)C[C@@H](C)CO5)[C@@]4(C)CCC32)C1 (stereo partly shown) [Compound 20] | nor toxic
CC(=O)OC1CC[C@@]2(C)C(=CC[C@H]3[C@@H]4C[C@@H]5O[C@]6(CC[C@@H](C)CO6)[C@@H](C)[C@@H]5[C@@]4(C)CC[C@@H]32)C1 (stereo partly drawn) [Compound 16, (25R)-3-Acetoxy-spirostan-5-ene] | nor toxic
C[C@@H]1CC[C@@]2(OC1)O[C@H]1C[C@H]3[C@@H]4CC5OC56CC(O)CC[C@]6(C)[C@H]4CC[C@]3(C)[C@H]1[C@@H]2C (stereo partly drawn) [Compound 17, (25R)-5,6-Epoxy-spirostan-3-ol] | nor toxic

---

Test: Cytotoxicity, MTT colorimetric test
Format: cell-based, human
Conditions: human; HepG2-A16 cells, MTT, 48 h; read-out: CC50
result.type: CC50 at 48 h (µM)
Write the value in µM as a bare number.

CC(=O)[C@H]1CC[C@H]2[C@@H]3CCC4=CC(=O)CC[C@]4(C)[C@H]3CC[C@]12C [Compound 5, 4-Pregnene-3,20-dione, reference compound] | 193
C[C@@H]1CC[C@@]2(OC1)O[C@H]1C[C@H]3[C@@H]4CC=C5C[C@@H](O)CC[C@]5(C)[C@H]4CC[C@]3(C)[C@H]1[C@@H]2C [Compound 1, (25R)-5-spirosten-3β-ol, reference compound] | 1110

# context switch: different compound, same CC50 at 48 h
Exercise: In one line, give reported CC50 at 48 h of the entry "C[C@H](C(=O)CC[C@@H](C)C=O)[C@H]1C(=O)C[C@H]2[C@@H]3CCC4=CC(=O)CC[C@]4(C)[C@H]3CC[C@]12C" .
Solution: 45.2

---

System: Plasmodium falciparum NF-54 strain
Assay: In vitro antiplasmodial activity, [3H]hypoxanthine incorporation, NF-54 strain
Assay type: cell-based
Settings: 48 h, read-out: IC50 μM ± SD NF-54
Listed compounds paired with reported IC50

Known results for compounds:
C[C@H](C(=O)CC[C@@H](C)C=O)[C@H]1C(=O)C[C@H]2[C@@H]3CCC4=CC(=O)CC[C@]4(C)[C@H]3CC[C@]12C | 95.9 µM
CCN(CC)CCCC(C)Nc1ccnc2cc(Cl)ccc12 (stereo not drawn) [CQ, chloroquine, reference compound] | 0.02 µM

Exercise: In one line, give reported IC50 of the entry CC(=O)[C@@]1(O)CC[C@H]2[C@@H]3CCC4=CC(=O)CC[C@]4(C)[C@H]3CC[C@@]21C [Compound 6, 17-hydroxy-4-pregnene-3,20-dione, reference compound] .
Solution: > 303 µM
